- Tested on: MDA-MB-468 breast
- TEST_DETAILS: NCI-60 one-dose screen, 48 h (100 = growth as untreated, 0 = no growth, -100 = all killed)
- STATED_CONDITIONS: 10 µM unless noted
Compounds without any hit were thinned out: in the full panel of roughly 83,000, 20% have a hit.
MEASUREMENT_NAME: growth (%)
Numbers only, in %.

Record excerpt, results attached:
- C=C1CCC2C3(C)COC(c4ccc(OC)cc4Br)OC3CCC2(C)C1/C=C/C1=CCOC1=O (stereo unspecified): 54.3
- CSCCC(C(=O)O)N1C(=O)/C(=C/c2ccc(O)c(O)c2)SC1=S (stereo unspecified): 100
- COC(=O)CCC1=C(C)C2=NC1=CC1=NC(=CC3=NC(=Cc4[nH]c(/c(=C(/C)O)c4C)=C2)C(C(C)=O)=C3C)C(C)=C1CCC(=O)OC: 108
- c1ccc(Nc2nc3c(s2)CCc2c[nH]cc2-3)nc1: 83.6
- COc1cc(/C=C/c2cc(/C=C/c3ccc(O)c(OC)c3)n(-c3ccccc3)c(=O)n2)ccc1O: 63

Could you now look at the following compound, please?
What measured growth goes with CC(C)(O)c1cccc(F)c1 ?
93.8

* * *

- Tested on: EKVX NSCLC
- TEST_DETAILS: NCI-60 one-dose screen, 48 h
- STATED_CONDITIONS: 10 µM
This is part of a sample that, as a whole, favours compounds with a hit. Of some 83,000 tested, about 20% had one in any assay. Activity calls are given as the source filed them. The calls were made as follows: active = growth percent below 10; inactive = the rest.
Reply using exactly one outcome from active, inactive

Reference set (3 entries):
- O=C(Nc1ccc(OCc2ccc(F)cc2)cc1)Nc1ccc(Cl)c(C(F)(F)F)c1: active
- Cc1ccc(COc2ccc(NC(=O)Nc3ccc(Cl)c(C(F)(F)F)c3)cc2)cc1: inactive
- Cn1cc(-c2nnc(N)nc2-c2c[nH]c3ccccc23)c2cc(Br)cnc21: inactive

What did the test return for O=C(CC(=O)Nc1ccc(Oc2ncnc3scc(Nc4n[nH]c(=S)s4)c23)cc1)Nc1ccc(Br)cc1 ?
inactive

* * *

- System: MOLT-4 leukemia
- TEST_DETAILS: NCI-60 one-dose screen, 48 h (100 = growth as untreated, 0 = no growth, -100 = all killed)
- STATED_CONDITIONS: 10 µM
This is part of a sample that, as a whole, favours compounds with a hit. Of some 83,000 tested, about 20% had one in any assay.
// label = y if growth is not less than 50%, otherwise n

Example cases with answers are listed next.
* CCOc1ccc(/C=N/NC(=O)Cn2nc(Cc3ccc(OC)cc3)c3onc(C)c3c2=O)cc1 | y
* COc1ccc(Cc2nn(CC(=O)N/N=C/c3ccc([N+](=O)[O-])cc3)c(=O)c3c(C)noc23)cc1 | y
* C#C[C@]1(O)CC[C@H]2[C@@H]3CC=C4c5sc(Nc6cc(C)cc(C)n6)nc5CC[C@]4(C)[C@H]3CC[C@@]21C | n
* Fc1ccc(-c2csc(Nc3cccc(Nc4nc(-c5ccc(F)cc5)cs4)c3)n2)cc1 | n
* CC1[C@H]2[C@H](C[C@H]3[C@@H]4CC=C5c6sc(Nc7cccc(Cl)n7)nc6CC[C@]5(C)[C@H]4CC[C@@]32C)O[C@]12CC[C@@H](C)CO2 (some centres undefined) | y
* O=C(CC(=O)Nc1ccc(Oc2ncnc3scc(Nc4n[nH]c(=S)s4)c23)cc1)Nc1ccc(Br)cc1 | y
* COc1ccc(NCc2cn(-c3ccc(C(=O)O)cc3)nc2-c2ccc(F)cc2)cc1C(F)(F)F | n
* Fc1ccc(/C=C/c2nc3ccccc3n3c(-c4ccc(Cl)cc4)nnc23)cc1 | n

In the following, a different molecule is considered.
Determine whether this molecule has growth no lower than 50%: COc1cc(-c2nc3ccc(C)cc3[nH]2)ccc1OCc1nnc(-c2ccccc2Br)o1
n

* * *

- System: MOLT-4 leukemia
- TEST_DETAILS: NCI-60 one-dose screen, 48 h (100 = growth as untreated, 0 = no growth, -100 = all killed)
- STATED_CONDITIONS: 10 µM
This is part of a sample that, as a whole, favours compounds with a hit. Of some 83,000 tested, about 20% had one in any assay.
Threshold 10%. growth below it: Satisfied. growth at it or above: Not satisfied.

See these solved cases before continuing.
* COc1cc(C2CC(c3ccc(Oc4ccc(Cl)cc4)cc3)=NN2c2nc(-c3ccc(Cl)cc3)c(C#N)c(N3CCOCC3)n2)cc(OC)c1OC (configuration not stated) | Not satisfied
* O=C(CC(=O)Nc1ccc(Oc2ncnc3scc(Nc4n[nH]c(=S)s4)c23)cc1)Nc1ccc(Cl)cc1 | Not satisfied
* Cn1cc(-c2nc(N)nnc2-c2c[nH]c3ccccc23)c2cc(Br)cnc21 | Not satisfied
* O=C(CSc1nc2ccccc2c(=O)n1-c1ccc(Cl)cc1)Nc1ccc(-c2nc3ccc([N+](=O)[O-])cc3[nH]2)cc1 | Not satisfied
* COc1cc2oc(-c3cccc(C(=O)Nc4ccc(Cl)cc4)c3)cc(=O)c2c(OCCN)c1OC | Satisfied
* COc1ccc(OC)c(-n2cc(C#N)c(N)c2C(=O)c2ccc(Cl)cc2Cl)c1 | Not satisfied
* Cc1ccc2c(c1)C(=O)/C(=C/c1c[nH]c3ccccc13)S2 | Not satisfied
* CCOC(=O)C1=C(N)N(c2ccc(C)cc2)C2=C(C(=O)CC(C)(C)C2)C1c1ccccc1Br (configuration not stated) | Not satisfied

Please indicate whether the reported growth of CC1(C)CC[C@]2(C(=O)O)CC[C@]3(C)C(=CCC4[C@@]5(C)C[C@@H](O)[C@@H]6OC(c7cccc(F)c7)OC[C@@]6(C)C5CC[C@]43C)C2C1 (some centres not stated) is strictly below 10%.
Not satisfied

Is it true that growth reported for Cn1cc(-c2nnc(N)nc2-c2c[nH]c3ccccc23)c2cc(Br)cnc21 is less than 10%?
Satisfied

Is 10% strictly greater than the molecule's reported growth? molecule: CCOC(=O)c1ccc(NC(=O)CSC(CC(=O)c2sc(Nc3ccccn3)nc2C)c2ccccc2F)cc1 (configuration not stated)
Not satisfied

In the record for CC(C)(C)c1cc(/C=C2\S/C(=N/c3ncn[nH]3)NC2=O)cc(C(C)(C)C)c1O , is growth less than 10%?
Not satisfied

Given COc1cc(Nc2nc(O)c(/C=C3\C=Nc4ccccc43)s2)cc(OC)c1OC , is recorded growth strictly lower than 10%?
Satisfied

Please determine if C#CCOc1cc(N(CC)CC)ccc1C(C(=O)NC(C)(C)C)N(C(=O)C1CCc2cc(F)ccc2O1)c1ccc(F)cc1F (configuration not stated) is below 10% in terms of growth.
Satisfied

Is the reported growth for CC1(C)CC(=O)C2=C(C1)N(Cc1ccc(C(=O)O)cc1)C1=C(C(=O)CC(C)(C)C1)C2c1ccc(Cl)cc1 strictly below 10%?
Not satisfied

Below 10% on growth? Entry Cc1cc(N=C2NC(=O)S/C2=C\c2ccc(F)cc2)n[nH]1
Not satisfied

Consider O=C(CSc1nc2ccccc2c(=O)n1-c1ccc(Cl)cc1)Nc1ccc(-c2nc3ccccc3[nH]2)cc1 . Does its growth lie strictly below 10%?
Satisfied

* * *

Consider the following molecules; for each one, report its growth.
- Test system: MDA-MB-468 breast
- TEST_DETAILS: NCI-60 one-dose screen, 48 h (100 = growth as untreated, 0 = no growth, -100 = all killed)
- STATED_CONDITIONS: 10 µM unless noted
This is part of a sample that, as a whole, favours compounds with a hit. Of some 83,000 tested, about 20% had one in any assay.
Answers are plain numbers, in %.

* CC(C)(CO)N(CCO)CCO | 95.1
* COc1ccc(/C(=C2\O[C@@H]([C@H](O)CO)[C@H]3OC(C)(C)O[C@@H]23)c2cc(OC)c(OC)c(OC)c2)cc1O | 107
* COCCn1cc(-c2nc(-c3cc4cccnc4n3C)cs2)c2cc(OC)ccc21 | -28

Below are some molecules; for each one, tell me its growth.
1. Cc1c(-c2ccccc2)[nH]c2ccccc12
2. O=C(c1ccc(C(F)(F)F)c(Cl)c1)N(Cc1ccc(Cl)cc1)c1ccc(-c2cc(C(F)(F)F)[nH]n2)c(O)c1
3. CCN(CC)CCOc1ccc(C(=C(C)c2ccc(OC)cc2)c2ccc(OCCN(CC)CC)cc2)cc1
4. Clc1ccccc1-c1cnn2cc(-c3ccccc3)cnc12
5. COc1cc2ncnc(Nc3cccc(Cl)c3F)c2cc1OC(=O)N1CCN(C)C[C@H]1C

1. 88.1
2. -11.5
3. -70.1
4. 90.8
5. -10.7

Hi! Can you tell me growth for each of these molecules?
1. Cc1cc(-c2ccc(N=Nc3c(S(=O)(=O)O)cc4cc(S(=O)(=O)O)cc(N)c4c3O)c(C)c2)ccc1N=Nc1cc(S(=O)(=O)O)c2ccccc2c1O
2. Nc1ccc(S(=O)(=O)Nc2ccnn2-c2ccccc2)cc1
3. C=C(C)[C@@H]1CC[C@]2(C)[C@H](CC=C3[C@@H]4C[C@](C)(C(=O)N5CCN(C)CC5)CC[C@]4(C)CC[C@]32C)[C@@]1(C)CCC#N

105
107
38.3

Consider the following items and state reported growth for each.
1. CCC1CCc2nc3sc(C(=O)Nc4cccc(C)c4)c(N)c3cc2C1 (stereo not given)
2. O=[N+]([O-])c1ccc2c(c1)Cc1ccccc1-2
3. COc1ccc(C(=O)Cn2cnc3c(Nc4cc(C(=O)Nc5ccc(N6CCN(CCO)CC6)cc5)ccc4C)ncnc32)cc1
4. N#Cc1ccc(O)c(C2=NCC(c3ccccc3)O2)c1 (stereo not given)
5. C#CCOc1cccc(Nc2ncnc3ccc(NC(=O)CCl)cc23)c1
6. N#Cc1c(N)nn(C(=O)c2ccc(NC(=O)c3ccccn3)cc2)c1-c1ccc(Cl)cc1
7. c1csc(C2=NN3C(C2)c2ccccc2OC3c2ccncc2)c1 (stereo not given)

1. 44.5
2. 84.1
3. 114
4. 32.3
5. -54
6. -29.3
7. 103

// data source = PubChem BioAssay (NCI)
